From: patent US11814435B2

The molecules listed here are annotated with their kd (1/s) cyBCMA @37° C..
# systemName: cyBCMA
# testMethodNotes: Kinetics and affinity of cyBCMA/human IgG interactions by SPR (Bio-Rad Proteon XPR36)
# Format: binding, cynomolgus
# experimentalSetup: 37° C.
Note: unit s⁻¹ is implicit; provide only the numeric part.

Below, 4 molecules whose answers are already recorded.
molecule	kd (1/s) cyBCMA @37° C., s⁻¹
L3.PY/L1.FF/H3.TAQ: anti-BCMA antibody (antibody, V domains shown) VH: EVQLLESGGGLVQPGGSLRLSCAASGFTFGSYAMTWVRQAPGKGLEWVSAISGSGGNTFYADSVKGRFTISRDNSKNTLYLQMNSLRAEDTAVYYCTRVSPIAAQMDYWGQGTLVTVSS VL: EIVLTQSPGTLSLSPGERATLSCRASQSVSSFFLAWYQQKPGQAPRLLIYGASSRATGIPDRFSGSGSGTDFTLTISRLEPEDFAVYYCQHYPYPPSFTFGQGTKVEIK	0.00376
L3.PY/H2.QR: anti-BCMA antibody (antibody, V domains shown) VH: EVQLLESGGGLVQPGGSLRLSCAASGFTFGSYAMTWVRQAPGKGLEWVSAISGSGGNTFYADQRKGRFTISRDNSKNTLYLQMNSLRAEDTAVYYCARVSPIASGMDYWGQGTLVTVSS VL: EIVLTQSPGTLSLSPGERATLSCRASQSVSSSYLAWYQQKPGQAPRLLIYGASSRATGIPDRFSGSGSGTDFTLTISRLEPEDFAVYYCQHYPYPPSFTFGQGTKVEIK	0.00658
L3.PY/L1.PH/H2.HA: anti-BCMA antibody (antibody, V domains shown) VH: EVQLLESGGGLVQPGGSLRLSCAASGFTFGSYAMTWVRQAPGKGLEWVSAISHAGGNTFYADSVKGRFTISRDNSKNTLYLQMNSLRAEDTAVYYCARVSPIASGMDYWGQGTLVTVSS VL: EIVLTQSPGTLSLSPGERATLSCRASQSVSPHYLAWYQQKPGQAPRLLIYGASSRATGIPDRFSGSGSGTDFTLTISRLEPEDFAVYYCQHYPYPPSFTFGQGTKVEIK	0.00553
L3.PY/L3.KF/H3.TAQ: anti-BCMA antibody (antibody, V domains shown) VH: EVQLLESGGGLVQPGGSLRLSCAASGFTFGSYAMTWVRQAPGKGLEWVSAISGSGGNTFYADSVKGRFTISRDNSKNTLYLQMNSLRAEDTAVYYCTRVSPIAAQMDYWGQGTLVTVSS VL: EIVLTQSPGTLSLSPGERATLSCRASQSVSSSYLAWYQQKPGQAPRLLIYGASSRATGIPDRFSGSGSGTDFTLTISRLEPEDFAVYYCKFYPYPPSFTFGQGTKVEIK	0.00191

# context switch: different molecule, same kd (1/s) cyBCMA @37° C.
Return reported kd (1/s) cyBCMA @37° C.; argument: L3.PY/L1.FF/H2.QL: anti-BCMA antibody (antibody, V domains shown) VH: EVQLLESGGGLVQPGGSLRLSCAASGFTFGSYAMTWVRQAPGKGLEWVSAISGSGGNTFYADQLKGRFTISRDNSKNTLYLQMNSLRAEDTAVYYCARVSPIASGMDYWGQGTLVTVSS VL: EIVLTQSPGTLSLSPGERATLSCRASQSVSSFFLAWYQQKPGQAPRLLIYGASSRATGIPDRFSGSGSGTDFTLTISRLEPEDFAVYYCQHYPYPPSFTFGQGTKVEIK 0.00449
